The measurements presented in this section are drawn from patent EP4603105A1.

- System: human lung cancer strain NCI-H441
- test: NCI-H441 cell proliferation inhibitory activity (CellTiter-Glo, 4 days)
- Assay type: cell-based
- recordedConditions: NCI-H441 cells, 4 days, read-out: NCl-H441 IC50
// boundary case: IC50 equal to 40 nM maps to not satisfied; strictly smaller maps to satisfied

CCOC[C@H]1C(=O)N[C@@H]([C@@H](C)CC)C(=O)N(C)CC(=O)N(C)[C@H]2C/C=C\CCN(C2=O)[C@@H](Cc2ccc(C(F)(F)F)cc2)C(=O)N(C)CC(=O)N[C@@H](CCc2ccc(C(F)(F)F)c(OC)c2)C(=O)N2C[C@@H](C)C[C@H]2C(=O)N(C)C2(CCC2)C(=O)N(C)[C@@H](C2CCCC2)C(=O)N(C)[C@H](C(=O)N(C)C)CC(=O)N1C = satisfied

Prompt: State whether 40 nM exceeds IC50 recorded for CCC[C@H]1C(=O)N[C@@H](CC(C)C)C(=O)N(C2CC2)CC(=O)N(C)[C@H]2C/C=C\CCN(C2=O)[C@@H](Cc2ccc(C)cc2)C(=O)N(C)CC(=O)N[C@@H](CCc2cc(F)c(C(F)(F)F)c(F)c2)C(=O)N2C[C@H](OCC)C[C@H]2C(=O)NC2(CCC2)C(=O)N(C)[C@@H](C2CCCC2)C(=O)N(C)[C@H](C(=O)N(C)C)CC(=O)N1C .
Response: not satisfied

Prompt: State whether 40 nM exceeds IC50 recorded for CCCOC[C@@H]1NC(=O)C[C@@H](C(=O)N(C)CCC)N(C)C(=O)[C@H](C2CCCC2)N(C)C(=O)C2(CC(C)(C)C2)NC(=O)[C@@H]2C[C@@H](OCC)CN2C(=O)[C@H](CCc2ccc(C(F)(F)F)c(Cl)c2)NC(=O)CN(C)C(=O)[C@H](Cc2ccc(C(F)(F)F)cc2)N2CC/C=C\C[C@@H](C2=O)N(C)C(=O)CN(C)C(=O)[C@H]([C@@H](C)CC)NC1=O .
Response: not satisfied

Prompt: State whether 40 nM exceeds IC50 recorded for CCOC[C@H]1C(=O)N[C@@H]([C@@H](C)CC)C(=O)N(C)CC(=O)N(C)[C@H]2C/C=C\CCN(C2=O)[C@@H](CC2CCCCC2)C(=O)N(C)CC(=O)N[C@@H](CCc2ccc(C(F)(F)F)c(OC)c2)C(=O)N2C[C@@H](C)C[C@H]2C(=O)N(C)C2(CCC2)C(=O)N(C)[C@@H](C2CCCC2)C(=O)N(C)[C@H](C(=O)N(C)C)CC(=O)N1C .
Response: not satisfied

Prompt: State whether 40 nM exceeds IC50 recorded for CCC[C@H]1C(=O)N[C@@H]([C@@H](C)CC)C(=O)N(C)CC(=O)N(C)[C@H]2C/C=C\CCN(C2=O)[C@@H](Cc2ccc(C)cc2)C(=O)N(C)CC(=O)N[C@@H](CCc2ccc(C(F)(F)F)c(OC)c2)C(=O)N2CC3(CC3)C[C@H]2C(=O)N(C)C2(CCC2)C(=O)N(C)[C@@H]([C@@H](C)CC)C(=O)N(C)[C@H](C(=O)N(C)C)CC(=O)N1C .
Response: satisfied

Prompt: State whether 40 nM exceeds IC50 recorded for CCC[C@H]1C(=O)N[C@@H](C2CCCC2)C(=O)N(C)CC(=O)N(C)[C@H]2C/C=C\CCN(C2=O)[C@@H](Cc2ccc(C(F)(F)F)cc2)C(=O)N(C)CC(=O)N[C@@H](CCc2ccc(C(F)(F)F)c(Cl)c2)C(=O)N2CC3(CC3)C[C@H]2C(=O)N(C)C2(CCC2)C(=O)N(C)[C@@H](C(CC)CC)C(=O)N(C)[C@H](C(=O)N(C)C)CC(=O)N1C .
Response: satisfied
